System: Ipomoea hederacea (IPOHE)
Assay Name: Post-emergence glasshouse herbicide test
Assay type: in vivo
Applied Conditions: post-emergence (sprayed after 8 days cultivation), 1000 g/h, evaluated after 13 days, five point scale
Quantity Name: percentage damage caused to the plant, POST Application IPOHE

Molecule: Cc1c(-n2ncc(Br)c(O)c2=O)ccc(S(C)(=O)=O)c1C1=NOCC1
Result: 5 (5=80-100%)
--
Molecule: CS(=O)(=O)c1cc(C(F)(F)F)ccc1-n1ncc(S(C)(=O)=O)c(O)c1=O
Result: 1 (1=0-19%)
--
Molecule: C=Cc1cnn(-c2ccc(S(C)(=O)=O)c(C3=NOCC3)c2C)c(=O)c1O
Result: 5 (5=80-100%)

For the molecule shown here, C[S+]([O-])c1cnn(-c2ccc(C(F)(F)F)cc2S(C)(=O)=O)c(=O)c1O (stereo not shown) , give the reported percentage damage caused to the plant, POST Application IPOHE. 4 (4=60-79%)

###

Measured percentage damage caused to the plant, PRE Application IPOHE values are reported for all entries that follow.
Tested on: Ipomoea hederacea (IPOHE)
Assay Name: Pre-emergence glasshouse herbicide test
Format: in vivo
Applied Conditions: pre-emergence (sprayed after one day cultivation), 1000 g/h, evaluated after 13 days, five point scale

Some solved entries appear below for comparison.
Compound: CSc1cnn(-c2ccc(S(C)(=O)=O)c(C3=NOCC3)c2C)c(=O)c1O
Target: Ipomoea hederacea (IPOHE)
Result: 5 (5=80-100%)

Compound: COc1cnn(-c2ccc(C(F)(F)F)cc2C(F)(F)F)c(=O)c1O
Target: Ipomoea hederacea (IPOHE)
Result: 1 (1=0-19%)

Compound: C=C(C)c1cnn(-c2ccc(S(C)(=O)=O)c(C3=NOCC3)c2C)c(=O)c1O
Target: Ipomoea hederacea (IPOHE)
Result: 5 (5=80-100%)

Then there is this compound:
For the compound shown here, "CSc1cnn(-c2ccc(C(F)(F)F)cc2S(C)(=O)=O)c(=O)c1O" , give the reported percentage damage caused to the plant, PRE Application IPOHE. 4 (4=60-79%)

###

Measured percentage damage caused to the plant, PRE Application AMARE values are reported for all entries that follow.
Tested on: Amaranthus retoflexus (AMARE)
Assay Name: Pre-emergence glasshouse herbicide test
Type: in vivo
Applied Conditions: pre-emergence (sprayed after one day cultivation), 1000 g/h, evaluated after 13 days, five point scale

Some solved entries appear below for comparison.
Compound: Cc1c(-n2ncc([S+](C)[O-])c(O)c2=O)ccc(S(C)(=O)=O)c1C1=NOCC1 (centres unmarked)
Result: 5 (5=80-100%)
//
Compound: Cc1nc(C(F)(F)F)ccc1-n1ncc(Cl)c(O)c1=O
Result: 5 (5=80-100%)
//
Compound: C[S+]([O-])c1cnn(-c2ccc(C(F)(F)F)cc2S(C)(=O)=O)c(=O)c1O (centres unmarked)
Result: 5 (5=80-100%)

For the compound shown here, "Cc1cnn(-c2ccc(S(C)(=O)=O)c(C3=NOCC3)c2C)c(=O)c1O" , give the reported percentage damage caused to the plant, PRE Application AMARE. 5 (5=80-100%)

For the compound shown here, Cc1c(-n2ncc(C#N)c(O)c2=O)ccc(S(C)(=O)=O)c1C1=NOCC1 [Compound 1.026] , give the reported percentage damage caused to the plant, PRE Application AMARE. 5 (5=80-100%)

For the compound shown here, "CS(=O)(=O)c1cc(Cl)ccc1-n1ncc(S(C)(=O)=O)c(O)c1=O" , give the reported percentage damage caused to the plant, PRE Application AMARE. 2 (2=20-39%)

For the compound shown here, "Cc1c(-n2ncc(S(C)(=O)=O)c(O)c2=O)ccc(S(C)(=O)=O)c1C1=NOCC1" , give the reported percentage damage caused to the plant, PRE Application AMARE. 5 (5=80-100%)

For the compound shown here, "CCc1cnn(-c2ccc(S(C)(=O)=O)c(C3=NOCC3)c2C)c(=O)c1O" , give the reported percentage damage caused to the plant, PRE Application AMARE. 5 (5=80-100%)
